System: Plasmodium cynomolgi
assay method text: Antimalarial activity against Plasmodium cynomolgi infected in rhesus monkey assessed as time duration between end of treatment and relapse at 0.5 mg/kg administered via stomach tube once daily for 7 days with 2.5 mg of base/kg of chloroquine1
Assay type: functional
endpoint name: Time
Please answer in the form of a number followed by its unit of measurement.

Tested on Plasmodium cynomolgi: C/C=C\c1ccnc2c(NC(C)CCCN)cc(OC)cc12.O=C(O)/C=C/C(=O)O (mixture of isomers) . Observed Time: 6 days

Tested on Plasmodium cynomolgi, the item CCCCc1ccnc2c(NC(C)CCCN)cc(OC)cc12.O=C(O)/C=C/C(=O)O (stereo not drawn) showed Time equal to 5 days

Item CC/C=C/c1ccnc2c(NC(C)CCCN)cc(OC)cc12.O=C(O)/C=C/C(=O)O (stereo not drawn) was tested on Plasmodium cynomolgi; the reported Time is 6 days

Time value, target or system Plasmodium cynomolgi, for CCCc1ccnc2c(NC(C)CCCN)cc(OC)cc12.O=C(O)/C=C/C(=O)O (stereo not drawn) : 7 days

// compound COc1cc(NC(C)CCCN)c2nccc(CC3CCCCC3)c2c1.O=C(O)/C=C/C(=O)O (stereo not drawn) , assay Plasmodium cynomolgi, Time value: 6 days

Reported Time (Plasmodium cynomolgi) for entry C/C=C/c1ccnc2c(NC(C)CCCN)cc(OC)cc12.O=C(O)/C=C/C(=O)O (stereo not drawn) is 8 days

COc1cc(NC(C)CCCN)c2nccc(CCCC3CCCCC3)c2c1.O=C(O)/C=C/C(=O)O (stereo not drawn) tested on Plasmodium cynomolgi gave Time: 6 days

The value of Time recorded for CCC(C)Cc1ccnc2c(NC(C)CCCN)cc(OC)cc12.O=C(O)/C=C/C(=O)O (stereo not drawn) when tested on Plasmodium cynomolgi reads 7 days
